Target: His-tagged recombinant human Gal-3 (hGal-3) (Homo sapiens)
Sequence (P17931 whole entry): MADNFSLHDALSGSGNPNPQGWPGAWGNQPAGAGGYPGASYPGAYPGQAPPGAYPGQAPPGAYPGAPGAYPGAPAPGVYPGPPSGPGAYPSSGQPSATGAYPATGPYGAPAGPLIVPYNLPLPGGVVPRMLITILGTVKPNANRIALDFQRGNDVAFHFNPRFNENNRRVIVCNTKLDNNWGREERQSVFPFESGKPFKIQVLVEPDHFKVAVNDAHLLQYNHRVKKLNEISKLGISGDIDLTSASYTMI
Test: Gal 3 HTRF Assay
Conditions: HTRF assay (default), 15 nM hGal-3, 15 nM B-ASF; read-out: hGal3 IC50 (HTRF)
value.kind: IC50 (nM)

compound	value.kind	units.symbol	result
CO[C@@H]1[C@@H](n2cc(-c3cccc(F)c3)nn2)[C@@H](O)[C@@H](CO)O[C@H]1C(=O)N(C)[C@H]1CN(C)C[C@@H](n2cc(-c3cccc(F)c3)nn2)[C@@H]1O	IC50	nM	20

I = CO[C@@H]1[C@@H](n2cc(-c3cccc(F)c3)nn2)[C@@H](O)[C@@H](CO)O[C@H]1C(=O)N(C)[C@H]1COC[C@@H](n2cc(-c3cccc(F)c3)nn2)[C@@H]1O (single isomer, unassigned)
II = CO[C@@H]1[C@@H](n2cc(-c3cccc(F)c3)nn2)[C@@H](O)[C@@H](CO)O[C@H]1C(=O)N[C@@H]1CCC[C@H](n2cc3c(F)cccc3n2)[C@H]1O (single isomer, unassigned)
// compare measured IC50, left I , right II , return larger API: response body contains the label of the selected item.
II
